Reference source: PubChem BioAssay AID1159580

# experiment_notes: chemical genetic growth profiling, strain panel (AID 1159580);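 also: tested at 20 µM; growth read once vehicle control cultures reached saturation at 30 °C; 1 = growth at the plate median or of vehicle wells; lower values mean less growth of the strain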
# condition_summary: S. cerevisiae deletion strains, growth OD, locus YLR221C, strain rsa3, active compounds read low
Screen size: about 5,500 compounds; about 2,000 (36%) were called active. About 18% were inconclusive and are not listed. This is one part of the list.
Assignment: determine reported normalized growth for the given compounds.
Give the figure by itself; no unit, no explanation.

May I ask what normalized growth has been recorded for `CC(=O)NCc1c(I)c(NC(C)=O)c(I)c(C(=O)O)c1I` ?
0.992

normalized growth for C#C[C@]1(O)CCC2C3CCC4=CC(=O)CC[C@@H]4C3CC[C@@]21CC (stereo not given in full) ?
0.997

Looking for the measured normalized growth of `O=c1ccc2ccc(O)cc2o1` , can you help?
0.98

Which normalized growth is listed for OC(CCN1CCCCC1)(c1ccccc1)C1CCCCC1 (stereo not given) ?
1.01

Returns the measured normalized growth for the input compound. Input: `N=C(N)SCCN`
1

For CCOC(=O)OC(C)OC(=O)C1N2C(=O)C(NC(=O)[C@H](N)c3ccccc3)C2SC1(C)C (stereo not given in full) , what is its reported normalized growth?
0.999

Field request: normalized growth | item: COC(=O)C[C@H]1C(C)(C)C2(O)OC34CC2C(=O)[C@]1(C)C3CC[C@]1(C)C4=CC(=O)O[C@H]1c1ccoc1 (stereo not given in full)
0.991

# query: normalized growth of entry CCN1C[C@]2(OC(=O)c3ccccc3NC(C)=O)CCC(OC)[C@]34C1[C@H](CC23)[C@@]1(O)CC(OC)[C@H]2CC4C1(O)[C@H]2OC (stereo not given in full)
0.976

Which measured normalized growth value corresponds to Nc1c2c(nc3ccccc13)CCCC2O (stereo not given) ?
1.02

What does the data say about its normalized growth? Entry: `NC12CC3CC(CC(C3)C1)C2`
0.986

Entry `Cc1cc(O)cc(C)c1Cl` : reported normalized growth = ?
0.856

Value lookup for normalized growth; key = `CNCc1ccccc1`
1.01

Need normalized growth of `NNC(=O)c1ccncc1` , thanks.
0.986

# get_value(readout='normalized growth', item= COC(=O)Nc1nc2ccc(S(=O)c3ccccc3)cc2[nH]1 (stereo not given) )
1.01

Look at this compound and give its reported normalized growth. `COc1cc(N)c(Cl)cc1C(=O)NC1CCN(Cc2ccccc2)CC1`
0.996

Looking for the measured normalized growth of COC(=O)C[C@H]1C(C)(C)C(=O)[C@@H]2CC3C4=CC(=O)O[C@@H](c5ccoc5)[C@]4(C)CCC3[C@@]1(C)C2=O (stereo not given in full) , can you help?
0.992

Look up normalized growth: OC(CCN1CCCCC1)(c1ccccc1)C1CC2C=CC1C2 (stereo not given)
0.993

Using the record for `Nc1c2ccccc2nc2ccccc12` , report its normalized growth.
0.516

Record request: normalized growth value, item `Cc1ccc(N=CN(C)C=Nc2ccc(C)cc2C)c(C)c1`
0.941

I would be grateful if you could share the reported normalized growth for `NC(N)=N/N=C/c1c(Cl)cccc1Cl` .
0.968

Which normalized growth value belongs to `Nc1ccc(S(=O)(=O)Nc2ccnn2-c2ccccc2)cc1` ?
0.986

// returns reported normalized growth for input Nc1ccccc1C(=O)CC(N)C(=O)O (stereo not given)
0.987

What value of measured normalized growth is listed for `CCOc1ccc2nc3cc(N)ccc3c(N)c2c1` ?
0.541

Consider the compound `Cc1cc(O)cc(O)c1C(=O)O` and give its measured normalized growth.
1.04

Could you share which normalized growth value was measured for `Nc1ccc(S(=O)(=O)c2ccc(N)cc2)cc1` ?
0.984

Can you share its normalized growth? I mean this compound: `COC(=O)Nc1nc2ccc(Sc3ccccc3)cc2[nH]1`
0.992

Request the reported normalized growth associated with `CNC(=O)O/N=C\C(C)(C)SC`
1.01

Recorded normalized growth for `COc1cccc2c1C(=O)c1c(O)c3c(c(O)c1C2=O)C[C@@](O)(C(C)=O)C[C@@H]3O[C@H]1C[C@H](N)[C@H](O)[C@H](C)O1` , please?
0.977

What measured normalized growth goes with `CC(C)(Oc1ccc(CCNC(=O)c2ccc(Cl)cc2)cc1)C(=O)O` ?
0.997

Name the recorded normalized growth for `COc1cc(C(=O)NCCCCCC(=O)O)cc(OC)c1OC` .
0.991

# input compound: C/C=C(/C)C(=O)OC1CCC2(C)C3CCC4C5(O)CC(O)C6(O)C(CN7CC(C)CCC7C6(C)O)C5(O)CC42OC13O (stereo not given) ; wanted: its normalized growth
0.968

What value of normalized growth has been reported for the following compound? `COC(=O)Nc1nc2ccc(C(=O)c3ccccc3)cc2[nH]1`
0.939

Could you share which normalized growth value was measured for C#C[C@]1(OC(C)=O)CCC2C3CCC4=CC(=O)CC[C@@H]4C3CC[C@@]21C (stereo not given in full) ?
1.02

Please give the measured normalized growth for this compound: `C/C=C1\[C@H]2C=C(C)C[C@]1(N)c1ccc(=O)[nH]c1C2`
1.01

Value lookup for normalized growth; key = N#CC(O[C@@H]1O[C@H](CO[C@@H]2O[C@H](CO)[C@@H](O)[C@H](O)[C@H]2O)[C@@H](O)[C@H](O)[C@H]1O)c1ccccc1 (stereo not given in full)
0.976

Query (compound): `O=c1oc2cc(O)ccc2s1` ; field requested: normalized growth
0.971

Requested field: normalized growth. Item: CCCCCCCCCCCCCCC(C(=O)O)C(O)(CC(=O)OC)C(=O)O (stereo not given)
0.947

// normalized growth lookup, key: CC1(C)CC[C@]2(C)CC[C@]3(C)C(=CCC4[C@@]5(C)CC[C@H](O)C(C)(C)C5CC[C@]43C)C2C1 (stereo not given in full)
0.987

Reported normalized growth for `COc1ccc2c(c1)c(CC(=O)O)c(C)n2C(=O)c1ccc(Cl)cc1` : what is it?
0.874

Could you share which normalized growth value was measured for `NNc1nncc2ccccc12` ?
0.969

Param item = CC1(C)CC[C@]2(C(=O)O)CC[C@]3(C)C(=CCC4[C@@]5(C)CC[C@H](O)[C@@](C)(CO)C5CC[C@]43C)C2C1 (stereo not given in full) ; retrieve measured normalized growth.
1.02

Given the compound CC(=O)O[C@@H]1CC[C@@]2(C)C(CC[C@]3(C)C2CC=C2C4CC(C)(C)CC[C@]4(C(=O)O)CC[C@]23C)C1(C)C (stereo not given in full) , what is its reported normalized growth?
0.954

Looking for the measured normalized growth of `Cc1ccnc(NS(=O)(=O)c2ccc(N)cc2)n1` , can you help?
0.98

Dear colleague, I am looking for the recorded normalized growth of the following compound: `Nc1c2c(nc3ccccc13)CCCC2`
0.963

Which normalized growth is listed for `O=C(Nc1ccc(C(=O)O)c(O)c1)c1ccccc1` ?
0.984
